For each record, write down the corresponding melting point.

[Q] // returns reported melting point for input "O=C(Nc1ccc(O)c(Cl)c1)Nc1nc(-c2ccc(Cl)cc2)cs1"
[A] 206 to 208 °C

[Q] Record request: melting point value, item "Oc1ccc(Nc2nc3ccc(Cl)cc3s2)cc1Cl"
[A] 213 to 214.5 °C

[Q] Could you tell me which melting point is on file for O=C(Nc1ccc(O)c(Cl)c1)Nc1ccc(O)c(Cl)c1 [Compound 78, 1,3-Bis(3-chloro-4-hydroxyphenyl)urea] ?
[A] 254.5 to 256.5 °C

[Q] Name the reported melting point value associated with the compound "O=C(Nc1ccc(O)c(Cl)c1)Nc1nccs1"
[A] 220 to 222 °C

[Q] Returns the measured melting point for the input compound. Input: "CN(C(=O)N(C)c1nc2ccccc2s1)c1ccc(O)c(Cl)c1"
[A] 227 to 228.5 °C

[Q] Reported melting point for "O=C(Nc1ccc(O)c(Cl)c1)NC1Cc2ccccc2C1" : what is it?
[A] 203 to 205 °C

[Q] What value of melting point has been reported for the following compound? "COc1ccc2nc(NC(=O)Nc3ccc(N)c(Cl)c3)sc2c1"
[A] 310 to 311 °C (dec.)

[Q] Please report the recorded melting point for "N#CSc1ccc2nc(NC(=O)Nc3ccc(O)c(Cl)c3)sc2c1" .
[A] 251 to 253 °C

[Q] Which melting point value is on record for "O=C(Nc1ccc(O)c(Cl)c1)Nc1nc2ccc(S(=O)(=O)C(F)(F)F)cc2s1" ?
[A] 267 to 269 °C

---

- system: 17β-HSD10 (Homo sapiens)
- experimental.protocol: recombinant 17β-HSD10 enzyme activity assay (primary NADH screen and dose response)
- Type: biochemical
- Parameters: made in house
- condition: relative remaining activity, 25 μM compound, six independent measurements ± SEM; read-out: 17β-HSD10 activity in the presence of compound at 25 μM (Primary Screen)
property.label: remaining activity at 25 µM (%)
Kindly answer with a numeric value in %, unit omitted.

[Q] Please state recorded remaining activity at 25 µM (tested on 17β-HSD10 (Homo sapiens)) of O=C(Nc1ccc(O)c(Cl)c1)Nc1nccs1 [Compound 74]
[A] 74.5

[Q] // lookup remaining activity at 25 µM | system=17β-HSD10 (Homo sapiens) | key= COc1ccc2nc(NC(c3ccc(F)cc3)P(=O)(OC)OC)sc2c1 (stereo not drawn) [Compound 34, reference compound]
[A] 95.4

[Q] Return remaining activity at 25 µM measured with 17β-HSD10 (Homo sapiens) given this compound: CN(C(=O)Nc1ccc(O)c(Cl)c1)c1nc2ccccc2s1 [Compound 41]
[A] 106

---

- system: 17β-HSD10 (Homo sapiens, UniProt Q99714)
- Sequence (Q99714 whole entry): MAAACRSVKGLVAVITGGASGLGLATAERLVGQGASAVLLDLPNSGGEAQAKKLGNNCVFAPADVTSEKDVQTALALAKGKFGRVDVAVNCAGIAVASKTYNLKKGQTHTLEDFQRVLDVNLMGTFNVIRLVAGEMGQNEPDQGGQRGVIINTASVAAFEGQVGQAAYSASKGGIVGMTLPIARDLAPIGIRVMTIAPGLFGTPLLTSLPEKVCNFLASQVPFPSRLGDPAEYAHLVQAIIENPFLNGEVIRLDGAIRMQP
- experimental.protocol: recombinant 17β-HSD10 enzyme activity assay (primary NADH screen and dose response)
- Type: biochemical
- Design: made in house
- condition: relative remaining activity, 25 μM compound, six independent measurements ± SEM; read-out: 17β-HSD10 activity in the presence of compound at 25 μM (Primary Screen)
Under this convention, 1.0 denotes remaining activity at 25 µM strictly below 80% and 0.0 denotes remaining activity at 25 µM at or above 80%.

[Q] Hello, I'm reviewing records and need to know if remaining activity at 25 µM of "N#CSc1ccc2nc(NC(=O)Nc3ccc(O)c(Cl)c3)sc2c1" is below 80%. Could you check?
[A] 1.0

[Q] Determine if "O=C(Nc1ccc(O)c(Cl)c1)Nc1nc2ccc(SC(F)(F)F)cc2s1" shows remaining activity at 25 µM strictly lower than 80%.
[A] 1.0

[Q] Does the reported remaining activity at 25 µM of COc1ccc2nc(NC(c3ccc(O)cc3)P(=O)(OC)OC)sc2c1 (centres unmarked) [Compound 35, reference compound] stay below 80%?
[A] 0.0

[Q] A record lists "CN(C(=O)Nc1nc2ccccc2s1)c1ccc(O)c(Cl)c1" . Is its remaining activity at 25 µM below 80%?
[A] 1.0

[Q] For "COc1ccc2nc(NC(=O)N(C)c3ccc(O)c(Cl)c3)sc2c1" , is the recorded remaining activity at 25 µM below the cut-off of 80%?
[A] 0.0
